Test system: U-251
Assay: NCI tumour cell line growth inhibition, 48 h
Activity calls are given as the source filed them. No stated cut-off is given here; in the data, active = GI50 up to about 1.1 µM and inactive = higher.
measure_name: GI50

Per the record, `O=c1c2cc(I)ccc2nc(Sc2ncccc2[N+](=O)[O-])n1Cc1ccccc1` has GI50 of 35.2 µM (inactive)

Per the record, `CCCCNc1c(CN)cnc2cc(Cl)ccc12` has GI50 of 16.4 µM (inactive)

Per the record, `Nc1nc2c(C(=O)O)c3ccc([N+](=O)[O-])cc3c(=O)n2c2ccccc12` has GI50 of 27.2 µM (inactive)

Per the record, O=C([O-])C(O)C(O)C(=O)O.[K+] (centres undefined) [POTASSIUM HYDROGENTARTRATE] has GI50 of > 100 µM (inactive)
